Multiple publications report Kd for Receptor-interacting serine/threonine-protein kinase 3 (Homo sapiens, UniProt Q9Y572); what follows is a combined list.

Use the examples below as a reference point.
C[C@H](Oc1cc(-c2nn(C)c3c(C4=CCCNC4)cnc(N)c23)ccc1NS(=O)(=O)C(F)F)c1ccc(F)cc1; > 10 µM
C[C@H](Oc1cc(-c2nn(C)c3c(-c4cnn(C5COC5)c4)cnc(N)c23)ccc1NS(=O)(=O)C(F)F)c1ccc(F)cc1; > 10 µM
C[C@H](Oc1cc(-c2nn(C)c3c(-c4cnn(C5CCNCC5)c4)cnc(N)c23)ccc1NS(=O)(=O)C(F)F)c1ccc(F)cc1; > 10 µM
C[C@H](Oc1cc(-c2nn(C)c3c(C#CC4CCN(CC(F)(F)F)CC4)cnc(N)c23)ccc1NS(=O)(=O)C(F)F)c1ccc(F)cc1; > 10 µM
NC(=O)c1c(-c2ccc(NS(=O)(=O)CC(F)(F)F)c(OCc3ccc(F)cc3)c2)n[nH]c1Nc1cccc(C(F)F)n1; > 30 µM
CCS(=O)(=O)Nc1ccc(-c2n[nH]c(Nc3cnccn3)c2C(N)=O)cc1OCc1c(C)cc(F)cc1C; > 30 µM
C[C@H](Oc1cc(-c2nn(C)c3c(N4CCOCC4)cnc(N)c23)ccc1NS(=O)(=O)C(F)F)c1ccc(F)cc1; > 10 µM
C[C@H](Oc1cc(-c2nn(C)c3c(-c4cnn(C5CN(CC(F)(F)F)C5)c4)cnc(N)c23)ccc1NS(=O)(=O)C(F)F)c1ccc(F)cc1; > 10 µM

Here is the next item to consider.
Prompt line: I'm curious: which Kd was measured for CCS(=O)(=O)Nc1ccc(-c2n[nH]c(Nc3cnccn3)c2C(N)=O)c(OCc2ccc(Cl)cc2)c1 tested on Receptor-interacting serine/threonine-protein kinase 3 (Homo sapiens, UniProt Q9Y572)?
Response line: > 30 µM

###

Assay read-out pKd on Receptor-interacting serine/threonine-protein kinase 3 (Homo sapiens, UniProt Q9Y572); records merged from the literature.
pKd: −log10 of the molar value.

Guide cases for pKd, answers given:
NC(=O)c1c(-c2ccc(NS(=O)(=O)CC(F)(F)F)c(Oc3ccc(F)cc3)c2)n[nH]c1Nc1cccc(C(F)(F)F)n1; < 4.52
C[C@H](Oc1cc(-c2cnn3c(-c4cnn(C5CCOCC5)c4)cnc(N)c23)ccc1NS(=O)(=O)C(F)F)c1ccc(F)cc1; < 5.00
COC[C@@H](Oc1cc(-c2nn(C)c3c(-c4cnn(C5CCOCC5)c4)cnc(N)c23)ccc1NS(=O)(=O)C(F)F)c1ccc(F)cc1; < 5.00
CCS(=O)(=O)Nc1ccc(-c2n[nH]c(Nc3ccc4ccc(Cl)cc4n3)c2C(N)=O)cc1OCc1ccc(F)cc1; < 4.52
Nc1n[nH]c2ccnc(-c3ccc(NS(=O)(=O)C(F)F)c(OCc4ccc(F)cc4)c3)c12; < 5.00

Prompt line: Name the reported pKd value associated with the compound C[C@H](Oc1cc(-c2n[nH]c(Nc3cc(C4CCOC4)on3)c2C(N)=O)ccc1NS(=O)(=O)C(F)F)c1ccc(F)cc1 (some centres unmarked)
Response line: < 4.52

Prompt line: So what's the measured pKd for this one? NC(=O)c1c(-c2ccc(NS(=O)(=O)C(F)F)c(OCc3ccc(Cl)cc3)c2)n[nH]c1Nc1cnc(C(F)(F)F)cn1
Response line: < 4.52

###

Kindly find below Kd information for Receptor-interacting serine/threonine-protein kinase 3 (Homo sapiens, UniProt Q9Y572) taken from the literature.

Observe how each entry below is paired with its result.
C[C@H](Oc1cc(-c2nn(C)c3c(C#CC4CCOCC4)cnc(N)c23)ccc1NS(=O)(=O)C(F)F)c1ccc(F)cc1; > 10 µM
CCS(=O)(=O)Nc1ccc(-c2n[nH]c(Nc3cnc(C)cn3)c2C(N)=O)cc1; > 30 µM
Cc1nn(C2CCN(C)C(C)(C)C2)cc1-c1cnc(N)c2c(-c3ccc(NS(=O)(=O)C(F)F)c(O[C@@H](C)c4ccc(F)cc4)c3)nn(C)c12 (stereo partly shown); > 10 µM
NC(=O)c1c(-c2ccc(NS(=O)(=O)C(F)F)c(OCc3ccc(F)cc3)c2)n[nH]c1Nc1cnccn1; > 30 µM
CCS(=O)(=O)Nc1ccc(-c2n[nH]c(Nc3cnccn3)c2C(N)=O)cc1OCc1ccncc1; > 30 µM
CCS(=O)(=O)Nc1ccc(-c2n[nH]c(Nc3cnccn3)c2C(N)=O)cc1OCc1cccc(OC(F)(F)F)c1; > 30 µM

Prompt line: Item: C[C@H](Oc1cc(-c2nn(C)c3c(-c4cnn(C5CCOCC5)c4)cnc(N)c23)ccc1NS(=O)(=O)C(F)F)c1cccc(Cl)c1 Test system: Receptor-interacting serine/threonine-protein kinase 3 (Homo sapiens, UniProt Q9Y572) Read-out: Kd Value: ?
Response line: > 10 µM
